I'd appreciate it if you could supply zone of inhibition at 5 µg/disc values for the items below.
# Tested on: Escherichia coli
# Assay procedure: Antibacterial activity against Escherichia coli at 5 ug after 24 hrs by disc diffusion assay
# Format: functional
# Experimental context: read-out: IZ
# output: bare number, implied unit mm

Exercise: What zone of inhibition at 5 µg/disc value was documented for this compound, CCC1[C@H]2c3c(n(C)c4ccccc4c3=O)OC(c3ccccc3)[C@@H]2CN1OS(=O)(=O)c1ccc(C)cc1 (mixture of isomers) ?
Solution: 12

Exercise: Recorded zone of inhibition at 5 µg/disc of CCC1[C@@H]2c3c(c4ccccc4n(C)c3=O)OC(C)(C)[C@H]2CN1OS(=O)(=O)c1ccc(C)cc1 (mixture of isomers) , please.
Solution: 10

Exercise: Entry CCC1[C@@H]2Nc3ccc(Br)cc3C(c3ccccc3)[C@H]2CN1OS(=O)(=O)c1ccc(C)cc1 (stereo partly drawn) : reported zone of inhibition at 5 µg/disc = ?
Solution: 12

----------
# Test system: Escherichia coli
# Assay procedure: Inhibition of Escherichia coli DNA gyrase -mediated DNA relaxation using pBR322 DNA as substrate at […] after 1 hrs by agarose gel electrophoresis
The source made the active and inactive calls. No cut-off for these calls is given here.
Measurement kind: inhibition

Examples from the recorded data:
CCC1[C@@H]2Nc3ccccc3C(c3ccccc3)[C@H]2CN1OS(=O)(=O)c1ccc(C)cc1 (some centres undefined)    Active
O=C(O)c1cn(C2CC2)c2cc(N3CCNCC3)c(F)cc2c1=O    Active
CCC1[C@@H]2Nc3ccc(Cl)cc3C(C)(C)[C@H]2CN1OS(=O)(=O)c1ccc(C)cc1 (some centres undefined)    Active
CCC1[C@H]2c3c(n(C)c4ccccc4c3=O)OC(c3ccccc3)[C@@H]2CN1OS(=O)(=O)c1ccc(C)cc1 (mixture of isomers)    Active
CCC1[C@@H]2c3c(c4ccccc4n(C)c3=O)OC(C)(C)[C@H]2CN1OS(=O)(=O)c1ccc(C)cc1 (mixture of isomers)    Active

Exercise: Using the record for CCC1[C@@H]2Nc3ccc(Cl)cc3C(c3ccccc3)[C@H]2CN1OS(=O)(=O)c1ccc(C)cc1 (some centres undefined) , report its inhibition.
Solution: Active

----------
# System: Salmonella typhi
# Assay procedure: Antibacterial activity against Salmonella typhi after 18 to 20 hrs by broth micro dilution assay
# Assay type: functional, Salmonella enterica subsp. enterica serovar Typhi
# Experimental context: Salmonella enterica
Please provide measured MIC50 for the entries that follow.
Write the number in mg/L without appending the unit.

Exercise: Record request: MIC50 value, item CCC1[C@@H]2Nc3ccc(Cl)cc3C(C)(C)[C@H]2CN1OS(=O)(=O)c1ccc(C)cc1 (some centres undefined)
Solution: 128

Exercise: If you can, please state the reported MIC50 value of CCC1[C@@H]2Nc3ccc(Br)cc3C(c3ccccc3)[C@H]2CN1OS(=O)(=O)c1ccc(C)cc1 (some centres undefined) .
Solution: 0.25

Exercise: GET /values?readout=MIC50&item= CCC1[C@@H]2Nc3ccccc3C(c3ccccc3)[C@H]2CN1OS(=O)(=O)c1ccc(C)cc1 (some centres undefined)
Solution: 64

Exercise: GET /values?readout=MIC50&item= CCC1[C@H]2c3c(n(C)c4ccccc4c3=O)OC(C)(C)[C@@H]2CN1OS(=O)(=O)c1ccc(C)cc1 (mixture of isomers)
Solution: 0.5

Exercise: Using the record for CCC1[C@@H]2c3c(c4ccccc4n(C)c3=O)OC(c3ccccc3)[C@H]2CN1OS(=O)(=O)c1ccc(C)cc1 (mixture of isomers) , report its MIC50.
Solution: 128

Exercise: Entry CCC1[C@H]2c3c(n(C)c4ccccc4c3=O)OC(c3ccccc3)[C@@H]2CN1OS(=O)(=O)c1ccc(C)cc1 (mixture of isomers) : reported MIC50 = ?
Solution: 128

Exercise: I have this molecule here, CCC1[C@@H]2c3c(c4ccccc4n(C)c3=O)OC(C)(C)[C@H]2CN1OS(=O)(=O)c1ccc(C)cc1 (mixture of isomers) , and I need its recorded MIC50.
Solution: 0.5

Exercise: Quick check: MIC50 of O=C(O)c1cn(C2CC2)c2cc(N3CCNCC3)c(F)cc2c1=O ?
Solution: 0.5

Exercise: Give the measured MIC50 of CCC1[C@@H]2Nc3ccc(Cl)cc3C(c3ccccc3)[C@H]2CN1OS(=O)(=O)c1ccc(C)cc1 (some centres undefined) .
Solution: 128

----------
# System: Staphylococcus aureus
# Assay procedure: Antibacterial activity against Staphylococcus aureus at 5 ug after 24 hrs by disc diffusion assay
# Type: functional
# Experimental context: read-out: IZ
Measurement kind: zone of inhibition at 5 µg/disc (mm)
Field format: number, assumed mm, no unit text.

Exercise: Any idea what zone of inhibition at 5 µg/disc came out for CCC1[C@@H]2Nc3ccccc3C(c3ccccc3)[C@H]2CN1OS(=O)(=O)c1ccc(C)cc1 (some centres undefined) on Staphylococcus aureus?
Solution: 20

Exercise: Could you share what zone of inhibition at 5 µg/disc was measured for CCC1[C@@H]2c3c(c4ccccc4n(C)c3=O)OC(C)(C)[C@H]2CN1OS(=O)(=O)c1ccc(C)cc1 (mixture of isomers) , tested on Staphylococcus aureus?
Solution: 9

Exercise: Quick check: zone of inhibition at 5 µg/disc on Staphylococcus aureus, item CCC1[C@@H]2Nc3ccc(Br)cc3C(c3ccccc3)[C@H]2CN1OS(=O)(=O)c1ccc(C)cc1 (some centres undefined) ?
Solution: 20

Exercise: Kindly state the measured zone of inhibition at 5 µg/disc obtained for CCC1[C@H]2c3c(n(C)c4ccccc4c3=O)OC(c3ccccc3)[C@@H]2CN1OS(=O)(=O)c1ccc(C)cc1 (mixture of isomers) with Staphylococcus aureus.
Solution: 20

----------
Assignment: determine reported MIC90 for the given compounds.
# System: Pseudomonas aeruginosa
# Assay procedure: Antibacterial activity against Pseudomonas aeruginosa after 18 to 20 hrs by broth micro dilution assay
# Assay type: functional
Give the figure together with its unit, number first.

Exercise: MIC90 lookup needed for CCC1[C@H]2c3c(n(C)c4ccccc4c3=O)OC(c3ccccc3)[C@@H]2CN1OS(=O)(=O)c1ccc(C)cc1 (mixture of isomers) , thanks.
Solution: 128 µg/mL

Exercise: Entry CCC1[C@@H]2c3c(c4ccccc4n(C)c3=O)OC(c3ccccc3)[C@H]2CN1OS(=O)(=O)c1ccc(C)cc1 (mixture of isomers) has what MIC90?
Solution: 128 µg/mL

Exercise: Which MIC90 value is on record for CCC1[C@@H]2Nc3ccc(Cl)cc3C(c3ccccc3)[C@H]2CN1OS(=O)(=O)c1ccc(C)cc1 (stereo not given in full) ?
Solution: 128 µg/mL

Exercise: // MIC90 lookup, key: O=C(O)c1cn(C2CC2)c2cc(N3CCNCC3)c(F)cc2c1=O
Solution: 1 µg/mL

Exercise: Field request: MIC90 | item: CCC1[C@@H]2Nc3ccc(Br)cc3C(c3ccccc3)[C@H]2CN1OS(=O)(=O)c1ccc(C)cc1 (stereo not given in full)
Solution: 0.5 µg/mL

----------
# System: Escherichia coli
# Assay procedure: Inhibition of Escherichia coli DNA gyrase -mediated DNA relaxation using pBR322 DNA as substrate at […] after 1 hrs by agarose gel electrophoresis
Active and inactive are the calls of the source. No cut-off for these calls is given here.
Measurement kind: inhibition

CCC1[C@@H]2c3c(c4ccccc4n(C)c3=O)OC(c3ccccc3)[C@H]2CN1OS(=O)(=O)c1ccc(C)cc1 (mixture of isomers)    Active
CCC1[C@H]2c3c(n(C)c4ccccc4c3=O)OC(C)(C)[C@@H]2CN1OS(=O)(=O)c1ccc(C)cc1 (mixture of isomers)    Active
CCC1[C@@H]2Nc3ccc(Br)cc3C(c3ccccc3)[C@H]2CN1OS(=O)(=O)c1ccc(C)cc1 (stereo partly drawn)    Active
